Known solubility thermodynamic of a selection of compounds
# assayProcedure: physchem
Entry rule: numbers only, all in µg/mL.

Some solved cases for reference:
* COCCN1CCCC12CCN(c1c(Cl)cncc1-c1ccc3c(c1)CS(=O)(=O)N3C)CC2 | 248
* Cn1cc(-c2ccc(-c3cncc(Cl)c3N3CCC4(CC3)CNC(=O)O4)cc2)cn1 | 3
* Cn1cc(-c2ccc(-c3cnc(N)c(Cl)c3N3CCC4(CCNC4=O)CC3)cc2)cn1 | 2

q: Find the recorded solubility thermodynamic belonging to Cn1cc(-c2ccc(-c3cncc(Cl)c3N3CCC4(CC3)NCNC4=O)cc2)cn1 and report it.
a: 47

q: Please give the measured solubility thermodynamic for this compound: Cn1ncc2cc(-c3cnc(N)c(Cl)c3N3CCC4(CCNC4=O)CC3)ccc21
a: 40

q: # query: solubility thermodynamic of entry CN1c2ccc(-c3cncc(Cl)c3N3CCC4(CC3)CNC(=O)O4)cc2CS1(=O)=O
a: 17

q: Can you look up the measured solubility thermodynamic of CN1c2ccc(-c3cnc(N)c(F)c3N3CCC4(CCNC4=O)CC3)cc2CS1(=O)=O for me?
a: 29

q: Which value of solubility thermodynamic has been reported for Cn1ncc2cc(-c3cnc(N)c(Cl)c3N3CCC4(CC3)CNC(=O)O4)ccc21 in the records?
a: 3

q: Consider the compound shown here: Cn1cc(-c2ccc(-c3cnc(N)c(C(F)(F)F)c3N3CCC4(CC3)CNC(=O)O4)cc2)cn1 What is its recorded solubility thermodynamic?
a: 1

q: Fill in the blank: the reported solubility thermodynamic of Cn1cc(-c2ccc(-c3cncc(Cl)c3N3CCC4(CCNC4=O)CC3)cc2)cn1 is ____.
a: 6

---

# assayProcedure: in vivo
# statedConditions: mouse, faeces
Please respond with YES when measured dose excreted is strictly beneath 20%, and with NO in all other cases.

• Cn1cc(-c2ccc(-c3cnc(N)c(Cl)c3N3CCC4(CC3)CNC(=O)O4)cc2)cn1 = YES
• CN1c2ccc(-c3cncc(Cl)c3N3CCC4(CC3)CNC(=O)O4)cc2CS1(=O)=O = YES

q: Is dose excreted strictly under 20% for the entry Cn1cc(-c2ccc(-c3cncc(Cl)c3N3CCC4(CCNC4=O)CC3)cc2)cn1 ?
a: YES

q: Bench note: check whether Cn1cc(-c2ccc(-c3cncc(Cl)c3N3CCC4(CC3)NC(=O)CNC4=O)cc2)cn1 shows dose excreted below 20%
a: NO
